- Test Method Notes: qHTS for Inducers of the Endoplasmic Reticulum Stress Response (ERSR) in Human Glioma: qHTS; further: % of control where 0% means no effect; nearly all actives have a fitted effect of over 35% in size
- Setup Conditions: U87-MG GRP78 promoter luciferase reporter, 16 h; active compounds read high
About 75 (0.02%) of roughly 420,000 compounds were called active. The entries come from a sample that favours actives as a whole.
activation: recorded values
Answer in %, number only, no unit symbol.

Some entries whose results are on file:
[
  {
    "Record Smiles": "COc1cc([C@@H]2c3cc4c(cc3[C@@H](O[C@@H]3O[C@@H]5CO[C@@H](C)O[C@H]5[C@H](O)[C@H]3O)[C@H]3COC(=O)[C@H]23)OCO4)cc(OC)c1OP(=O)(O)O",
    "Measurement Units": "%",
    "activation": -3.95
  },
  {
    "Record Smiles": "Cc1cc(-c2ccnc(-n3ncc(C(=O)NC(C)(C)CO)c3C3CC3)n2)c(C)s1",
    "Measurement Units": "%",
    "activation": -3.21
  },
  {
    "Record Smiles": "COc1c(O)c2c(=O)cc(OC)c3c4c(OC)cc(=O)c5c(O)c(OC)c6c(c(c1C[C@@](C)(O)[C@H]6C(C)=O)c23)c54",
    "Measurement Units": "%",
    "activation": -6.89
  }
]

Moving on to the next molecule.
**Query** Recorded activation of O=C(c1cccc(F)c1)N1CCC2(CCCN(Cc3ccncc3)C2)CC1 , please.
**Result** -4.07

---

- Test Method Notes: qHTS for Inducers of the Endoplasmic Reticulum Stress Response (ERSR) in Human Glioma: qHTS; further: % of control where 0% means no effect; nearly all actives have a fitted effect of over 35% in size
- Setup Conditions: U87-MG GRP78 promoter luciferase reporter, 16 h; active compounds read high
Out of some 420,000 compounds screened, about 75 (0.02%) were called active. The list comes from a sample in which actives are over-represented; it also holds close analogues and randomly drawn compounds.
activation: recorded values
Answer in %, number only, no unit symbol.

Some entries whose results are on file:
[
  {
    "Compound": "COC(=O)[C@@H]1C[C@H](NC(=O)c2ccccc2C(F)(F)F)CN1Cc1cccc(O)c1",
    "Endpoint Name": "activation",
    "Test Value": -4.69
  },
  {
    "Compound": "CO[C@@]12[C@@H](COC(N)=O)C3=C(C(=O)C(C)=C(N)C3=O)N1C[C@@H]1N[C@@H]12",
    "Endpoint Name": "activation",
    "Test Value": -2.04
  },
  {
    "Compound": "CCc1noc(C)c1C(=O)NCCN1Cc2cc(OC)ccc2OC(CC)C1 (stereo not given)",
    "Endpoint Name": "activation",
    "Test Value": -4.48
  },
  {
    "Compound": "COc1ccccc1-c1nc(NCc2cccs2)c2ccccc2n1",
    "Endpoint Name": "activation",
    "Test Value": -5.15
  }
]

Moving on to the next compound.
**Query** Recorded activation of c1ccc2c(Nc3ccncc3)nc(-c3ccc4c(c3)OCO4)nc2c1 , please.
**Result** -6.62

---

activation: recorded values
- Test Method Notes: qHTS for Inducers of the Endoplasmic Reticulum Stress Response (ERSR) in Human Glioma: qHTS; further: % of control where 0% means no effect; nearly all actives have a fitted effect of over 35% in size
- Setup Conditions: U87-MG GRP78 promoter luciferase reporter, 16 h; active compounds read high
- Procedure: Primary protein unfolding takes place for many diseases, including diabetes and hypoxia, , and triggers a reaction in the cells called ER stress response (ERSR). ). […] Stable transfected human glioma cell line, U87-MG, are dispensed at density 1000 cells/well into Greiner white solid bottom 1536-well assay plates. […] The assay plates will be incubated for 16 hours and developed by adding appropriate quantities of the Promega Bright Glo reagent. […]
Out of some 420,000 compounds screened, about 75 (0.02%) were called active. The entries come from a sample that favours actives as a whole.

Some entries whose results are on file:
[
  {
    "Compound": "Cc1cc(-c2ccnc(-n3ncc(C(=O)NCCc4ccncc4)c3C)n2)c(C)s1",
    "activation": "-1.46% (inactive)"
  },
  {
    "Compound": "Cc1cc(C)cc(C#CC2C=CC(Oc3ccc(C4CCCC4)cc3)C(CO)O2)c1 (centres undefined)",
    "activation": "-1.34% (inactive)"
  },
  {
    "Compound": "Cc1c(C(=O)NCC2CCCN(C)C2)cnn1-c1nccc(-c2ccco2)n1 (centres undefined)",
    "activation": "-1.59% (inactive)"
  },
  {
    "Compound": "Cn1c(=O)c(CCc2ccccc2)nc2cnc(Nc3ccccc3)nc21",
    "activation": "-3.93% (inactive)"
  },
  {
    "Compound": "C/C(CCN1CCCCc2nc(C)c(C)cc21)=N\\O[C@@H](C)c1cn([C@@H]2COC[C@@H]2O)nn1",
    "activation": "-4.19% (inactive)"
  }
]

**Query** Recorded activation of O=C1[C@H]2[C@H]3[C@H](O)[C@H](O)C/C(=N/OCc4ccccc4)[C@H]3CC[C@@H]2C(=O)N1Cc1ccccc1 , please.
**Result** -3.44% (inactive)

**Query** Recorded activation of COc1cc(C[C@H]2NCCc3cc(O)c(O)cc32)cc(OC)c1OC , please.
**Result** -2.86% (inactive)

**Query** Recorded activation of O=C1c2c(O)cccc2[C@@H]([C@@H]2O[C@H](CO)[C@@H](O)[C@H](O)[C@H]2O)c2cc(CO)cc(O)c21 , please.
**Result** -3.93% (inactive)

**Query** Recorded activation of COc1ccccc1-c1ccnc(-n2ncc(C(=O)NCCCN3CCOCC3)c2C)n1 , please.
**Result** -5.22% (inactive)
